Values from patent US20250282857A1

- system-under-test: Cell-associated proTGFβ1 complexes (hGARP-proTGFβ1 and hLRRC33-proTGFβ1)
- assay-comment: MSD-SET, hIgG4
recorded-metric: Cell AVRG (average KD, hGARP and hLRRC33 complexes) (nM)
Write the number in nM without appending the unit.

binder="Ab26 (antibody, IgG4, V domains shown) VH: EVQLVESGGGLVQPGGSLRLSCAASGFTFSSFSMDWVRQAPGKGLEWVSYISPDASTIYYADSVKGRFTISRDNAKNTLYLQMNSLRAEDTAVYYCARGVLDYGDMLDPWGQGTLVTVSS VL: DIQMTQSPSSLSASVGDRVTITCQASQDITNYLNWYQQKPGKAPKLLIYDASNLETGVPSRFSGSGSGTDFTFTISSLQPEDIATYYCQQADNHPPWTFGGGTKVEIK" endpoint_result=0.072
binder="Ab31 (antibody, IgG4, V domains shown) VH: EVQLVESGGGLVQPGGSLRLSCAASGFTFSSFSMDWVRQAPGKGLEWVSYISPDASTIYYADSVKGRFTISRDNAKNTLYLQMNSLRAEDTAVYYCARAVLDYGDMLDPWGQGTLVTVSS VL: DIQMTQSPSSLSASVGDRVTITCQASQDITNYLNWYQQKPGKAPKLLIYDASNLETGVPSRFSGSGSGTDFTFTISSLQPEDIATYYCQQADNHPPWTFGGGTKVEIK" endpoint_result=0.058

Form field: reported Cell AVRG (average KD, hGARP and hLRRC33 complexes) of Ab33 (antibody, IgG4, V domains shown) VH: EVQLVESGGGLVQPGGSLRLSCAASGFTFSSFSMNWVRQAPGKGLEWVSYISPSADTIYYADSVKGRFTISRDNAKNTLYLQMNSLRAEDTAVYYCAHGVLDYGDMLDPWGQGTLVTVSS VL: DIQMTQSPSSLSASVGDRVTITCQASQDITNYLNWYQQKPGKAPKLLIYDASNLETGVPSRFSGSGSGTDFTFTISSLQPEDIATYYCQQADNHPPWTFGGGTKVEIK
0.027
